Source of measurements: the RepoRT retention time repository (doi:10.1021/acs.analchem.1c00972)

# experimental-protocol: RP, Phenomenex Synergi Polar-RP, 100 × 3 mm, 2.5 µm, 40 °C, 0.4 mL/min, estimated dead time 1.1 min; A: water + 1 mM ammonium fluoride; B: methanol + 1 mM ammonium fluoride; C: acetonitrile; D: 50% isopropanol + 50% acetone; gradient (min/%B/%C/%D) 0/5/0/0 2/5/0/0 8/95/0/0 12/80/15/0 19/25/70/0 19.5/0/25/70 21.5/0/25/70 22.5/0/25/0 23/5/0/0
# condition-summary: stereoisomer not certain
quantity-measured: LC retention time (min)
Numeric answer only, unit min assumed.

Entry CCCc1cc(=O)[nH]c(=S)[nH]1 [6-Propyl-2-thiouracil] has what LC retention time?
8.14

Give its LC retention time value. Item: CCCN(CCC)c1c([N+](=O)[O-])cc(S(N)(=O)=O)cc1[N+](=O)[O-] [Oryzalin]
11.2

For CCC(=O)Nc1ccc(Cl)c(Cl)c1 [Propanil] , what is its reported LC retention time?
10.6

// LC retention time lookup, key: NS(=O)(=O)c1cc2c(cc1Cl)NCNS2(=O)=O [Hydrochlorothiazide]
7.62

Given CC(Oc1ccc(Cl)cc1Cl)C(=O)O (stereo not given) [Dichlorprop] , state its recorded LC retention time.
8.48

Any idea what LC retention time was measured for O=C1NS(=O)(=O)c2ccccc21 [Saccharin] ?
3.01

Look up LC retention time: CC(C)(c1cc(Br)c(O)c(Br)c1)c1cc(Br)c(O)c(Br)c1 [Tetrabromobisphenol A]
11.7

Returns the measured LC retention time for the input molecule. Input: CCC(C)C(=O)OC1CC(O)C=C2C=CC(C)C(CCC(O)CC(O)CC(=O)O)C21 (stereo not given) [Pravastatin]
9.42

* * *

# experimental-protocol: RP, Waters ACQUITY UPLC BEH C18, 100 × 1 mm, 1.7 µm, 50 °C, 0.3 mL/min, estimated dead time 0.17 min; A: water + 10 mM ammonium bicarbonate; B: 10% water + 90% methanol + 10 mM ammonium bicarbonate; gradient (min/%B) 0/0 15/100 21/100 22/0 30/0
# condition-summary: stereoisomer not certain
quantity-measured: LC retention time (min)
Enter your answer as a number in min; do not include the unit.

Below are worked cases with known answers.
> print(dat)
                                   molecule  quantity.measured  observed.measurement
1        NC12CC3CC(CC(C3)C1)C2 [Amantadine]  LC retention time                  10.5
2  CC(C)(C)C(O)C(=Cc1ccc(Cl)cc1Cl)n1cncn1 (centres undefined) [Diniconazole]  LC retention time                  16.5
3  COCC(C)N(C(=O)CS(=O)CC(=O)O)c1c(C)csc1C (centres undefined) [Dimethenamid M31]  LC retention time                  10.6

Look up LC retention time: COc1cc2ccc(=O)oc2c(O)c1OC [Fraxidin]
8.22

* * *

LC retention time values for the molecules below.
# experimental-protocol: RP, Waters ACQUITY UPLC BEH C18, 100 × 1 mm, 1.7 µm, 50 °C, 0.3 mL/min, estimated dead time 0.17 min; A: water + 0.1% formic acid + 20 mM ammonium formate; B: methanol + 0.1% formic acid + 20 mM ammonium formate; gradient (min/%B) 0/0 15/100 21/100 22/0 30/0
# condition-summary: stereoisomer not certain
Express your answer in min, writing the number without its unit.

# count of solved cases: 6
molecule	observed-measurement
CCCCCCCCn1sc(Cl)c(Cl)c1=O [DCOIT]	17
CC1(C)OC2CC3C4CC(F)C5=CC(=O)C=CC5(C)C4C(O)CC3(C)C2(C(=O)CO)O1 (configuration not stated) [Flunisolide]	13.6
CC(C)Cc1ccc(C(C)C(=O)O)cc1 (configuration not stated) [Ibuprofen]	14.1
CCC1OC(=O)CC(O)C(C)C(OC2OC(C)C(OC3CC(C)(O)C(O)C(C)O3)C(N(C)C)C2O)C(CC=O)CC(C)C(=O)C=CC(C)=CC1COC1OC(C)C(O)C(OC)C1OC (configuration not stated) [Tylosin]	13.1
CC12C=CC(=O)C=C1CCC1C2C(O)CC2(C)C1CCC2(O)C(=O)CO (configuration not stated) [Prednisolone]	12.4
CC12CCC3C(=CCc4cc(O)ccc43)C1CCC2=O (configuration not stated) [Equilin]	13.8

Look at this molecule and give its reported LC retention time. Nc1c(Cl)c(Cl)nc(C(=O)O)c1Cl [Picloram]
7.28

State the recorded LC retention time for this entry: O=c1ccc2ccccc2o1 [Coumarin]
9.79

Give its LC retention time value. Item: CC1CC2C3CCC4=CC(=O)C=CC4(C)C3(F)C(O)CC2(C)C1(O)C(=O)CO (configuration not stated) [Dexamethasone]
13.2

Please report the recorded LC retention time for CC1(C)C(=O)Oc2ccc(OS(C)(=O)=O)cc21 [Ethofumesate-2-keto] .
12

What value of measured LC retention time is listed for CCOC(=O)C1CC(=O)C(=C(O)C2CC2)C(=O)C1 (configuration not stated) [Trinexapac-ethyl] ?
13.2

Any idea what its LC retention time is? The molecule is CCNS(=O)(=O)c1ccccc1C [N-Ethyl-o-toluenesulfonamide]
11.4

Query: LC retention time; subject: CCN1CCN(c2cc3c(cc2F)c(=O)c(C(=O)O)cn3C2CC2)CC1 [Enrofloxacin]
8.5

Can you share its LC retention time? I mean this molecule: Cc1nc2ccccc2s1 [2-Methylbenzothiazole]
12.3
